# assay.system: nucleolin (NCL) (Homo sapiens, UniProt P19338 1-710)
# Sequence (P19338 whole entry): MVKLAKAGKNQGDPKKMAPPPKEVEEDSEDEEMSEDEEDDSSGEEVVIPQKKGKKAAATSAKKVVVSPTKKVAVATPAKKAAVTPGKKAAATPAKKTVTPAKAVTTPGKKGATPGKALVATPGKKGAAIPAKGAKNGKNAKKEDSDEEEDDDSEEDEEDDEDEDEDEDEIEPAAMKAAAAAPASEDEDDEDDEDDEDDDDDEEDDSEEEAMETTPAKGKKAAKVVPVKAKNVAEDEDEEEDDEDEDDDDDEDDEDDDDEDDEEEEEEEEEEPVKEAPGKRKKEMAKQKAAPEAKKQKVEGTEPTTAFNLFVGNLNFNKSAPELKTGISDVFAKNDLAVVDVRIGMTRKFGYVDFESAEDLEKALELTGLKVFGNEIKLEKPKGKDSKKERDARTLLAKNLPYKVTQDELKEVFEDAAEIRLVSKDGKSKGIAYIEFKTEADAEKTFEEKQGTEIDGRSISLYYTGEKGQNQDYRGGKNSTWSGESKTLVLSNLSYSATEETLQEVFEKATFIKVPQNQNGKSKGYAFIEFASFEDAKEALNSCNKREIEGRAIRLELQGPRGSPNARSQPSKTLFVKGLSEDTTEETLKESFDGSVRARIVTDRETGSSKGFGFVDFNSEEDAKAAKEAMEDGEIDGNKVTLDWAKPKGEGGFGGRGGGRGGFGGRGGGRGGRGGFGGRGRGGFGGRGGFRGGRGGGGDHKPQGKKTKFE
# procedure.details: MST; MST: 300 nM FAM-aptamer, NCL 1.95 nM-4 uM, binding buffer not specified, 25 C, 15 min; AP1-AP6 and Mut folded in 100 mM KCl, 10 mM K3PO4 pH 7.0; AS1411 in 100 mM NaCl, 10 mM Tris-HCl pH 7.0; cell competition at 4 C, 1 h
# measurement.setup: protein: commercial; label: 5'-FAM (amide bond linker); G4, loop-length variant
pKd: −log10 of the molar value.

[
  {
    "binder": "GUUAGGGUUUAUUUGGGAUUG (structured_RNA) [AP5-F]",
    "pKd": 6.03
  },
  {
    "binder": "GUUAGGGUUUAUUAUGGGAUUG (structured_RNA) [AP6-F]",
    "pKd": 6.29
  },
  {
    "binder": "GUUAGGGUUUAUUGGGAUUG (structured_RNA) [AP4-F]",
    "pKd": 6.09
  },
  {
    "binder": "GUUAGGGUUUUGGGAUUG (structured_RNA) [AP2-F]",
    "pKd": 6.21
  },
  {
    "binder": "GUUAGGGUUUAUGGGAUUG (structured_RNA) [AP3-F]",
    "pKd": 6.30
  }
]
